- measured-target: TRK-A (Homo sapiens)
- Sequence (P04629 33-796): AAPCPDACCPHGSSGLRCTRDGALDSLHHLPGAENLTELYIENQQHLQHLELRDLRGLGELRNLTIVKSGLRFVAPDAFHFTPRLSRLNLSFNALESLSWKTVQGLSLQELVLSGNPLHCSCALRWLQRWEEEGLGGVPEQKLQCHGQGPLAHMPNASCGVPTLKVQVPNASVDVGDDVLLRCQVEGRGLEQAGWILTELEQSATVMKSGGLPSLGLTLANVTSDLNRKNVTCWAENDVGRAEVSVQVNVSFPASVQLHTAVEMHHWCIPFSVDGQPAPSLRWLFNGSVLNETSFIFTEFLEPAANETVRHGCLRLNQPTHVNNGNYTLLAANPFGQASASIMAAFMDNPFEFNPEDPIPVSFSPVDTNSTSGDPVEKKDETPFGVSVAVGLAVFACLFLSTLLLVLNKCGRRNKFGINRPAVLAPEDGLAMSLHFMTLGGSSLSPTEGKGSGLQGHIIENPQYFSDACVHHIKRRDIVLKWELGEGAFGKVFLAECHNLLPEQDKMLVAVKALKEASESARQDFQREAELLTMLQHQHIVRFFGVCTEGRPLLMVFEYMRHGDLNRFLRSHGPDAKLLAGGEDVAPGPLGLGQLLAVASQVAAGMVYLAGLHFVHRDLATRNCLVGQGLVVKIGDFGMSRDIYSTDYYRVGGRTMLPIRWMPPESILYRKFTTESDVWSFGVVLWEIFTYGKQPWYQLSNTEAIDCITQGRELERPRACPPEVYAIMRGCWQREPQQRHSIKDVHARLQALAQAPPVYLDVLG
- method-notes: In vitro protein kinase assay (radioisotopic 33P, FlashPlate)
- condition-info: recombinant human kinase
value-kind: IC50 (nM)
Output spec: scalar in nM, unitless text.

Supply IC50 value. Item: COc1cc2c(Nc3ncc(CCC(=O)Nc4ccc(F)cc4)s3)ncnc2cc1OCCCN1CCCC1
430

---

- measured-target: VEGF-R1 (Homo sapiens, UniProt P17948)
- method-notes: In vitro protein kinase assay (radioisotopic 33P, FlashPlate)
- condition-info: recombinant human kinase
value-kind: pIC50
Remember, pIC50 is on a log scale: it is -log10 of the molar concentration.

Tell me its pIC50 on VEGF-R1 (Homo sapiens, UniProt P17948): COc1cc2c(Nc3ncc(CCC(=O)Nc4ccc(F)cc4)s3)ncnc2cc1OCCCN1CCCC1
6.19

---

- measured-target: IRAK4 (Homo sapiens, UniProt Q9NWZ3)
- Sequence (Q9NWZ3 1-460): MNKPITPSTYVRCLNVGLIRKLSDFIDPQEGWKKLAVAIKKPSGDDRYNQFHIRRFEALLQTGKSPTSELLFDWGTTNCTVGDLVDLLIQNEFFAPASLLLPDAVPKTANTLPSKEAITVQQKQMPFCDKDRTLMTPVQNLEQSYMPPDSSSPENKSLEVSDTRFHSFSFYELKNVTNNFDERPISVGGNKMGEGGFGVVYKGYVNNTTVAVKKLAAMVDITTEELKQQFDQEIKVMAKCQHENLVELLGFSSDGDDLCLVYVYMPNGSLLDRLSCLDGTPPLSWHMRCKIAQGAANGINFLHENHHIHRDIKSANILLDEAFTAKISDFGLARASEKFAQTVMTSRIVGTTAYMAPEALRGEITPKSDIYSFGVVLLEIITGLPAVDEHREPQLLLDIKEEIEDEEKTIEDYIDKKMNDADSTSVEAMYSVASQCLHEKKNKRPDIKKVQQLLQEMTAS
- method-notes: In vitro protein kinase assay (radioisotopic 33P, FlashPlate)
- condition-info: recombinant human kinase
value-kind: pIC50
Answer as the number alone; pIC50 is minus log10 of concentration in mol/L.

Give a short answer stating reported pIC50 for COc1cc2c(Nc3ncc(CCC(=O)Nc4ccc(F)cc4)s3)ncnc2cc1OCCCN1CCCC1 .
5.66

---

Each record here notes measured pIC50.
- measured-target: FLT3 (Homo sapiens, UniProt P36888)
- Sequence (P36888 27-993): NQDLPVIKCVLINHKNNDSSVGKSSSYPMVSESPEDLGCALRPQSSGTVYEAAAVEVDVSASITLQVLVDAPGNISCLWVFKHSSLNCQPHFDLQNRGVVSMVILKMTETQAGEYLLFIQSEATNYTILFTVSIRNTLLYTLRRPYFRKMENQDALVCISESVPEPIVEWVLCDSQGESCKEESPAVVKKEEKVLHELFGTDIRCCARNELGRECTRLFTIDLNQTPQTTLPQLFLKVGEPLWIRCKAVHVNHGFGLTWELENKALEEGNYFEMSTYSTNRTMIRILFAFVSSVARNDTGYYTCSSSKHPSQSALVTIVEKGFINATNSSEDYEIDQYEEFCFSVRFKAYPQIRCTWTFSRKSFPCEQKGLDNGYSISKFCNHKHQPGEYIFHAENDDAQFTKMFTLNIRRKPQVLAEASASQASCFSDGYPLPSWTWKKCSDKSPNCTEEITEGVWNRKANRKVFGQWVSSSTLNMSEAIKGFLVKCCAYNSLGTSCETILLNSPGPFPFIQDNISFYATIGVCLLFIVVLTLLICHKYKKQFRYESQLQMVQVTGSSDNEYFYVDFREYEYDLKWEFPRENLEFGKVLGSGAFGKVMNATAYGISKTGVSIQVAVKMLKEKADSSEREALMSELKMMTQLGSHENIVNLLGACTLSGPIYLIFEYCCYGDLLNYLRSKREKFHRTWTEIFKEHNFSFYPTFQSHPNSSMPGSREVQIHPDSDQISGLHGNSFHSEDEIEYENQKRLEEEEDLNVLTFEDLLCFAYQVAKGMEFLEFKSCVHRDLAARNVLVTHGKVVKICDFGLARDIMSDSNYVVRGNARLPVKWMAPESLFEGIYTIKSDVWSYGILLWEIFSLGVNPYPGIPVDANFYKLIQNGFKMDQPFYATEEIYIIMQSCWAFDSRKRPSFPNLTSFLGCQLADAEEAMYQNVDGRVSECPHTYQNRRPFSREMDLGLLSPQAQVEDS
- method-notes: In vitro protein kinase assay (radioisotopic 33P, FlashPlate)
- condition-info: recombinant human kinase
// scale note: pIC50 = -log10(conc_M); give the bare number

Example cases with answers are listed next.
>  <compound>
COc1cc2c(Nc3ncc(CCNC(=O)c4cccc(F)c4)s3)ncnc2cc1OCCCN1CCCC1 [Compound 1]

>  <result-number>
5.26

$$$$
>  <compound>
COc1cc2c(Nc3ncc(CCC(=O)Nc4ccc(F)cc4)s3)ncnc2cc1OCCCN1CCCC1 [Compound 9]

>  <result-number>
6.22

$$$$
>  <compound>
COc1cc2ncnc(Nc3ncc(CCC(=O)Nc4cccc(F)c4)s3)c2cc1OC [Compound 7]

>  <result-number>
4.60

$$$$
>  <compound>
COc1cc2c(Nc3ncc(CCNC(=O)c4ccccc4)s3)ncnc2cc1OCCCN1CCCC1 [Compound 2]

>  <result-number>
4.96

$$$$

Report pIC50 for COC(=O)CCc1cnc(Nc2ncnc3cc(OC)c(OC)cc23)s1 [Compound 3]
5.05

Please report the measured pIC50 for COc1cc2c(Nc3ncc(CCC(=O)Nc4cccc(F)c4)s3)ncnc2cc1OCCCN1CCCC1 [Compound 5]
6.42

Return value of pIC50 for input COc1cc2ncnc(Nc3ncc(CCC(=O)Nc4ccc(F)cc4)s3)c2cc1OC [Compound 8] , no commentary.
5.27

---

Reported pIC50 values follow for various compounds
- measured-target: UniProtKB P35968
- Sequence (P35968 20-1356): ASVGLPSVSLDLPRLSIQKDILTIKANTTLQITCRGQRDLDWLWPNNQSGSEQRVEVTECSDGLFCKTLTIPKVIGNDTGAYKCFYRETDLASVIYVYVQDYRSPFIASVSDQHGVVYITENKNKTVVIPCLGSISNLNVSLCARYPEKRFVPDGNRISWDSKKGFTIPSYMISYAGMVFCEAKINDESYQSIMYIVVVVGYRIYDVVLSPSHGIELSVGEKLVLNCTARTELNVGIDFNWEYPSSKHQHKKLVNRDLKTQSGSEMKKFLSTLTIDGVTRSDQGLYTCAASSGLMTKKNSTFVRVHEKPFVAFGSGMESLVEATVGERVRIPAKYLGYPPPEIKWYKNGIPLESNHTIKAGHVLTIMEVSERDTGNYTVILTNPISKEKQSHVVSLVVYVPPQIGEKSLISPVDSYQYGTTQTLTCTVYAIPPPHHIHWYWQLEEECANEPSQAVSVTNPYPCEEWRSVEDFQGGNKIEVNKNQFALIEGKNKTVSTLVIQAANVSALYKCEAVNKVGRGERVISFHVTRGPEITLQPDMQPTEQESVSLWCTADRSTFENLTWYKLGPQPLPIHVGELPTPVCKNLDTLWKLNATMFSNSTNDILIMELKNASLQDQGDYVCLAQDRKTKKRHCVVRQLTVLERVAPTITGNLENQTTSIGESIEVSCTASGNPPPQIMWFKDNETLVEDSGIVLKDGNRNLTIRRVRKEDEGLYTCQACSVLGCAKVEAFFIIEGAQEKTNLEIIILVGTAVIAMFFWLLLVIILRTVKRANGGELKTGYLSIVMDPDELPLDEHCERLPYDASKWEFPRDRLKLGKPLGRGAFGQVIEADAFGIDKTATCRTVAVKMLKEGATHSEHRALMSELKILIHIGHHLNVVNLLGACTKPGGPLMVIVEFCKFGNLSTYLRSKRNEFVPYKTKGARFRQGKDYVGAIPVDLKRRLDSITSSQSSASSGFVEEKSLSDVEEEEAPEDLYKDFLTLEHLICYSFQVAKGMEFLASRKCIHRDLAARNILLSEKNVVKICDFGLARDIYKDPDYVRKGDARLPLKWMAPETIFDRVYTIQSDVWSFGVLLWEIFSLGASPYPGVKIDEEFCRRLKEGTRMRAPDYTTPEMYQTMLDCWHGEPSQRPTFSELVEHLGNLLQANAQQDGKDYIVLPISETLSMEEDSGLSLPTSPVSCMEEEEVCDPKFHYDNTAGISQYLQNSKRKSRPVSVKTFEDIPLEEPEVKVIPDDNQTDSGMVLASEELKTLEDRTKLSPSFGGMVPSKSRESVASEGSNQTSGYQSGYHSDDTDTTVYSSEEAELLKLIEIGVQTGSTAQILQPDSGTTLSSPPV
- method-notes: In vitro protein kinase assay (radioisotopic 33P, FlashPlate)
- Format: biochemical
- Design: made in house; host or cells: Sf9 insect cells (baculovirus)
- condition-info: recombinant human kinase
- Procedure: The effect of the thiazole derivatives was tested on recombinant, human protein kinases in in vitro protein kinase assays. […] The kinase activity was measured with a radioisotopic protein kinase assay by measuring the incorporation of ^33P-phosphate into proteins or peptide substrates. The assays were performed in FlashPlate™ microtiter scintillation plates and incorporation of ^33P-phosphate was determined with a microplate scintillation counter.
Conceptually, pIC50 converts a concentration in mol/L into minus its log10.

>  <mol-smiles>
COc1cc2c(Nc3ncc(CCNC(=O)c4ccccc4)s3)ncnc2cc1OCCCN1CCCC1

>  <pIC50>
5.70

$$$$

For the compound COC(=O)CCc1cnc(Nc2ncnc3cc(OC)c(OC)cc23)s1 , report pIC50.
6.41

In one line, give reported pIC50 of the entry COc1cc2c(Nc3ncc(CCC(=O)Nc4ccc(F)cc4)s3)ncnc2cc1OCCCN1CCCC1 .
7.02

---

IC50 values by entry
- measured-target: TIE2 (Homo sapiens, UniProt Q02763)
- method-notes: In vitro protein kinase assay (radioisotopic 33P, FlashPlate)
- condition-info: recombinant human kinase
Value expressed in nM; do not type the unit.

>  <mol-smiles>
COC(=O)CCc1cnc(Nc2ncnc3cc(OC)c(OC)cc23)s1

>  <measured-target>
TIE2 (Homo sapiens, UniProt Q02763)

>  <result-number>
3400

$$$$

Let me know recorded IC50 for COc1cc2c(Nc3ncc(CCC(=O)Nc4cccc(F)c4)s3)ncnc2cc1OCCCN1CCCC1 , thanks.
360

Specify reported IC50 for the compound shown: COc1cc2c(Nc3ncc(CCNC(=O)c4cccc(F)c4)s3)ncnc2cc1OCCCN1CCCC1
900

---

- measured-target: EGF-R (Homo sapiens)
- Sequence (P00533 25-1210): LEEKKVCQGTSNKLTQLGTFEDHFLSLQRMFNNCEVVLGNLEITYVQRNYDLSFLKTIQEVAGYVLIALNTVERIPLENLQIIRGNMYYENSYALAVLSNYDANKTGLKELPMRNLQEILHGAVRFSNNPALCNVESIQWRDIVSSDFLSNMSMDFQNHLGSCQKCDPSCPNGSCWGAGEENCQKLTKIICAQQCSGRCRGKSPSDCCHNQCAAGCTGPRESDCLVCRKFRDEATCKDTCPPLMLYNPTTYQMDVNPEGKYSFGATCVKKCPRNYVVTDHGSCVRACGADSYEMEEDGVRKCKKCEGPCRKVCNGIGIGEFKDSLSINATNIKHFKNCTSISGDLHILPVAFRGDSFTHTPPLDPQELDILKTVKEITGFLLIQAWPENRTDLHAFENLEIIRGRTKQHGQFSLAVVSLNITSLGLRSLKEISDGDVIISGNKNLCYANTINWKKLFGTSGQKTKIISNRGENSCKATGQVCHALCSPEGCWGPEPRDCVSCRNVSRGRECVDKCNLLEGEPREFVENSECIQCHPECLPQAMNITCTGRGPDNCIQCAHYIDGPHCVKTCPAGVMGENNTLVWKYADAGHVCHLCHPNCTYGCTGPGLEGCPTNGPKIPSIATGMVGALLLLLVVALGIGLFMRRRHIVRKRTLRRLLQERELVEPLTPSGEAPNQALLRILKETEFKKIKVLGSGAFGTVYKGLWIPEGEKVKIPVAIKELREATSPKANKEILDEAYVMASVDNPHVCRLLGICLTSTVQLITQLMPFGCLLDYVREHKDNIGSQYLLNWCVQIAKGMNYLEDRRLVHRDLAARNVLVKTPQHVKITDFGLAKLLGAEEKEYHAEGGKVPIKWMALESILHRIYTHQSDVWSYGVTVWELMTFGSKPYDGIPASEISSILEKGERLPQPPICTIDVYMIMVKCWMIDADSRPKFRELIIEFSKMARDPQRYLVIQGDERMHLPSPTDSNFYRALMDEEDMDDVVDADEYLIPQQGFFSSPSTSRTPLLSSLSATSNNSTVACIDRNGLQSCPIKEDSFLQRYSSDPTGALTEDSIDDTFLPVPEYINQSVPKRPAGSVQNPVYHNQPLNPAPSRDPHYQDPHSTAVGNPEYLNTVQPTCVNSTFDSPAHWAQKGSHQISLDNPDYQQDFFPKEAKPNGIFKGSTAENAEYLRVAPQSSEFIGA
- method-notes: In vitro protein kinase assay (radioisotopic 33P, FlashPlate)
- condition-info: recombinant human kinase
Response field label: string, one of Criterion met (IC50 strictly below 30 µM) or Criterion not met.

Use these answered entries as a reference point.
>  <mol-smiles>
COC(=O)CCc1cnc(Nc2ncnc3cc(OC)c(OC)cc23)s1

>  <discrete-label>
Criterion met

$$$$
>  <mol-smiles>
COc1cc2ncnc(Nc3ncc(CCC(=O)Nc4cccc(F)c4)s3)c2cc1OC

>  <discrete-label>
Criterion not met

$$$$
>  <mol-smiles>
COc1cc2c(Nc3ncc(CCC(=O)Nc4ccc(F)cc4)s3)ncnc2cc1OCCCN1CCCC1

>  <discrete-label>
Criterion met

$$$$
>  <mol-smiles>
COc1cc2c(Nc3ncc(CCNC(=O)c4ccccc4)s3)ncnc2cc1OCCCN1CCCC1

>  <discrete-label>
Criterion met

$$$$
>  <mol-smiles>
COc1cc2c(Nc3ncc(CCC(=O)Nc4cccc(F)c4)s3)ncnc2cc1OCCCN1CCCC1

>  <discrete-label>
Criterion met

$$$$

In the record for COc1cc2ncnc(Nc3ncc(CCC(=O)Nc4ccc(F)cc4)s3)c2cc1OC , is IC50 less than 30 µM?
Criterion not met

---

IC50 overview
- measured-target: Aurora B (Homo sapiens)
- Sequence (Q96GD4 whole entry): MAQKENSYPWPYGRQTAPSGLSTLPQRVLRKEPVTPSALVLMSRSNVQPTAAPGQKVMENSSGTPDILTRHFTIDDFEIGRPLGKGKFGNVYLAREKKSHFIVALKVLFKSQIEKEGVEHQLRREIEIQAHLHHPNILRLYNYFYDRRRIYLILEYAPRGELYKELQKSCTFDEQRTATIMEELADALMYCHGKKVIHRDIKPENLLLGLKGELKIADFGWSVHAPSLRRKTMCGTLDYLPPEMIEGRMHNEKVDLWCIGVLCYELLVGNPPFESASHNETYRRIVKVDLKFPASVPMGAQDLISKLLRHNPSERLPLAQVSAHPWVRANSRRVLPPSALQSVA
- method-notes: In vitro protein kinase assay (radioisotopic 33P, FlashPlate)
- Assay type: biochemical
- Parameters: made in house; host or cells: Sf9 insect cells (baculovirus)
- condition-info: recombinant human kinase
# number only, unit nM dropped from output

For orientation, consider the following solved cases.
>  <mol-smiles>
COC(=O)CCc1cnc(Nc2ncnc3cc(OC)c(OC)cc23)s1

>  <unit-of-measure>
nM

>  <IC50>
2400

$$$$
>  <mol-smiles>
COc1cc2ncnc(Nc3ncc(CCC(=O)Nc4cccc(F)c4)s3)c2cc1OC

>  <unit-of-measure>
nM

>  <IC50>
2900

$$$$

Using known records, supply IC50 for COc1cc2c(Nc3ncc(CCC(=O)Nc4ccc(F)cc4)s3)ncnc2cc1OCCCN1CCCC1
470

Specify IC50 for COc1cc2c(Nc3ncc(CCNC(=O)c4cccc(F)c4)s3)ncnc2cc1OCCCN1CCCC1 and stop.
360

---

- measured-target: Aurora A (Homo sapiens, UniProt O14965)
- Sequence (O14965 1-403): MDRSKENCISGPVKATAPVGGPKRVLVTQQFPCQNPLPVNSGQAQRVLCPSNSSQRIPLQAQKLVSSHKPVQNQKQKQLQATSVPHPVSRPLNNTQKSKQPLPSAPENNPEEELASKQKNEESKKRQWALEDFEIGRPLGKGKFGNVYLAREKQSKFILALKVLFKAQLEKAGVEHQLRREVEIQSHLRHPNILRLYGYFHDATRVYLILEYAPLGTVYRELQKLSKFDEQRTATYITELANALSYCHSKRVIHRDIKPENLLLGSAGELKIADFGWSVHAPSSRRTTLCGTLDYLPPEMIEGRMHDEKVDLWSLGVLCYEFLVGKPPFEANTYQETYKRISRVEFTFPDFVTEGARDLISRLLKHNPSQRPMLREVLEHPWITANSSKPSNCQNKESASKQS
- method-notes: In vitro protein kinase assay (radioisotopic 33P, FlashPlate)
- condition-info: recombinant human kinase
Reported IC50 values are given for each entry in this list.

Field: example entries. Status: answers known.
>  <mol-smiles>
COc1cc2c(Nc3ncc(CCC(=O)Nc4cccc(F)c4)s3)ncnc2cc1OCCCN1CCCC1

>  <result>
0.4 µM

$$$$
>  <mol-smiles>
COc1cc2c(Nc3ncc(CCNC(=O)c4ccccc4)s3)ncnc2cc1OCCCN1CCCC1

>  <result>
0.16 µM

$$$$
>  <mol-smiles>
COC(=O)CCc1cnc(Nc2ncnc3cc(OC)c(OC)cc23)s1

>  <result>
0.99 µM

$$$$
>  <mol-smiles>
COc1cc2ncnc(Nc3ncc(CCC(=O)Nc4ccc(F)cc4)s3)c2cc1OC

>  <result>
6 µM

$$$$
>  <mol-smiles>
COc1cc2c(Nc3ncc(CCC(=O)Nc4ccc(F)cc4)s3)ncnc2cc1OCCCN1CCCC1

>  <result>
0.71 µM

$$$$
>  <mol-smiles>
COc1cc2ncnc(Nc3ncc(CCC(=O)Nc4cccc(F)c4)s3)c2cc1OC

>  <result>
1.3 µM

$$$$

Check the records and state IC50 for COc1cc2c(Nc3ncc(CCNC(=O)c4cccc(F)c4)s3)ncnc2cc1OCCCN1CCCC1
0.1 µM
